Provenance of the data: ChEMBL document CHEMBL5543097

Can you tell me Ratio for the items I'm about to list?
Test system: Streptococcus pneumoniae
Test: Potency index, ratio of telithromycin MIC to test compound MIC for antibacterial activity against Streptococcus pneumoniae SPN19-13 assessed as inhibition of visible bacterial growth incubated for 18 hrs by broth microdilution method
Format: functional

Give the measured Ratio of `CC[C@H]1OC(=O)[C@@](C)(F)C(=O)[C@H](C)[C@@H](O[C@@H]2O[C@H](C)C[C@H](N(C)C)[C@H]2O)[C@](C)(OC)C[C@@H](C)C(=O)[C@H](C)[C@H]2N(CCCOC(=O)Nc3ccc(F)cc3)C(=O)O[C@]12C` . <4

Give the measured Ratio of `CC[C@H]1OC(=O)[C@@](C)(F)C(=O)[C@H](C)[C@@H](O[C@@H]2O[C@H](C)C[C@H](N(C)C)[C@H]2O)[C@](C)(OC)C[C@@H](C)C(=O)[C@H](C)[C@H]2N(CCCOC(=O)Nc3ccc4sccc4c3)C(=O)O[C@]12C` . <4

Give the measured Ratio of `CC[C@H]1OC(=O)[C@@](C)(F)C(=O)[C@H](C)[C@@H](O[C@@H]2O[C@H](C)C[C@H](N(C)C)[C@H]2O)[C@](C)(OC)C[C@@H](C)C(=O)[C@H](C)[C@H]2N(CCCOC(=O)Nc3cccs3)C(=O)O[C@]12C` . <4

Give the measured Ratio of `CC[C@H]1OC(=O)[C@@](C)(F)C(=O)[C@H](C)[C@@H](O[C@@H]2O[C@H](C)C[C@H](N(C)C)[C@H]2O)[C@](C)(OC)C[C@@H](C)C(=O)[C@H](C)[C@H]2N(CCCOC(=O)Nc3cccc(F)c3)C(=O)O[C@]12C` . <4

###

System: Streptococcus pneumoniae
Experiment: Antibacterial activity against erythromycin-resistant Streptococcus pneumoniae SPN19-14 assessed as inhibition of visible bacterial growth incubated for 18 hrs by broth microdilution method
Format: functional
readoutType: MIC
Answer shape: numeric part, then the unit.

Streptococcus pneumoniae / MIC / `CC[C@H]1OC(=O)[C@@](C)(F)C(=O)[C@H](C)[C@@H](O[C@@H]2O[C@H](C)C[C@H](N(C)C)[C@H]2O)[C@](C)(OC)C[C@@H](C)C(=O)[C@H](C)[C@H]2N(CCCOC(=O)Nc3c(C)noc3C)C(=O)O[C@]12C` : value? 0.25 µg/mL

Streptococcus pneumoniae / MIC / `CC[C@H]1OC(=O)[C@@](C)(F)C(=O)[C@H](C)[C@@H](O[C@@H]2O[C@H](C)C[C@H](N(C)C)[C@H]2O)[C@](C)(OC)C[C@@H](C)C(=O)[C@H](C)[C@H]2N(CCCOC(=O)Nc3ccc(C(F)(F)F)cc3)C(=O)O[C@]12C` : value? 0.125 µg/mL

Streptococcus pneumoniae / MIC / `CCOc1ccc(NC(=O)OCCCN2C(=O)O[C@]3(C)[C@@H](CC)OC(=O)[C@@](C)(F)C(=O)[C@H](C)[C@@H](O[C@@H]4O[C@H](C)C[C@H](N(C)C)[C@H]4O)[C@](C)(OC)C[C@@H](C)C(=O)[C@H](C)[C@@H]23)cc1` : value? 0.5 µg/mL

Streptococcus pneumoniae / MIC / `CC[C@H]1OC(=O)[C@@](C)(F)C(=O)[C@H](C)[C@@H](O[C@@H]2O[C@H](C)C[C@H](N(C)C)[C@H]2O)[C@](C)(OC)C[C@@H](C)C(=O)[C@H](C)[C@H]2N(CCCOC(=O)Nc3ccccc3OC)C(=O)O[C@]12C` : value? 0.125 µg/mL

###

Can you tell me CC50 at 48 h for the items I'm about to list?
Assay: Cytotoxicity against mouse AML12 cells assessed as reduction in cell viability incubated for 48 hrs by MTT assay
Type: toxicity, cell-based
Answer shape: numeric part, then the unit.

Give the measured CC50 at 48 h of `CC[C@H]1OC(=O)[C@@](C)(F)C(=O)[C@H](C)[C@@H](O[C@@H]2O[C@H](C)C[C@H](N(C)C)[C@H]2O)[C@](C)(OC)C[C@@H](C)C(=O)[C@H](C)[C@H]2N(CCCOC(=O)Nc3ccc(Cl)cc3C)C(=O)O[C@]12C` . 12.8 µM

Give the measured CC50 at 48 h of `CC[C@H]1OC(=O)[C@@](C)(F)C(=O)[C@H](C)[C@@H](O[C@@H]2O[C@H](C)C[C@H](N(C)C)[C@H]2O)[C@](C)(OC)C[C@@H](C)C(=O)[C@H](C)[C@H]2N(CCCOC(=O)Nc3cc(C)oc3C(F)(F)F)C(=O)O[C@]12C` . 35.9 µM

Give the measured CC50 at 48 h of `CC[C@H]1OC(=O)[C@@](C)(F)C(=O)[C@H](C)[C@@H](O[C@@H]2O[C@H](C)C[C@H](N(C)C)[C@H]2O)[C@](C)(OC)C[C@@H](C)C(=O)[C@H](C)[C@H]2N(CCCOC(=O)Nc3ccc(C(C)C)cc3)C(=O)O[C@]12C` . 25.5 µM

Give the measured CC50 at 48 h of `CC[C@H]1OC(=O)[C@H](C)C(=O)[C@H](C)[C@@H](O[C@@H]2O[C@H](C)C[C@H](N(C)C)[C@H]2O)[C@](C)(OC)C[C@@H](C)C(=O)[C@H](C)[C@H]2N(CCCOC(=O)Nc3cccc(C)c3)C(=O)O[C@]12C` . 71.7 µM

###

Can you tell me MIC for the items I'm about to list?
Test system: Staphylococcus epidermidis
Experiment: Antibacterial activity against erythromycin-resistant Staphylococcus epidermidis 19-9 assessed as inhibition of visible bacterial growth incubated for 18 hrs by broth microdilution method
Format: functional

Give the measured MIC of `CC[C@H]1OC(=O)[C@H](C)C(=O)[C@H](C)[C@@H](O[C@@H]2O[C@H](C)C[C@H](N(C)C)[C@H]2O)[C@](C)(OC)C[C@@H](C)C(=O)[C@H](C)[C@H]2N(CCCCn3cnc(-c4cccnc4)c3)C(=O)O[C@]12C` . 0.5 µg/mL

Give the measured MIC of `CC[C@H]1OC(=O)[C@@](C)(F)C(=O)[C@H](C)[C@@H](O[C@@H]2O[C@H](C)C[C@H](N(C)C)[C@H]2O)[C@](C)(OC)C[C@@H](C)C(=O)[C@H](C)[C@H]2N(CCCOC(=O)Nc3cccc(F)c3)C(=O)O[C@]12C` . < 0.03 µg/mL

Give the measured MIC of `CC[C@H]1OC(=O)[C@@](C)(F)C(=O)[C@H](C)[C@@H](O[C@@H]2O[C@H](C)C[C@H](N(C)C)[C@H]2O)[C@](C)(OC)C[C@@H](C)C(=O)[C@H](C)[C@H]2N(CCCOC(=O)Nc3ccc(C)cc3)C(=O)O[C@]12C` . 0.125 µg/mL

Give the measured MIC of `CC[C@H]1OC(=O)[C@@](C)(F)C(=O)[C@H](C)[C@@H](O[C@@H]2O[C@H](C)C[C@H](N(C)C)[C@H]2O)[C@](C)(OC)C[C@@H](C)C(=O)[C@H](C)[C@H]2N(CCCOC(=O)Nc3ccccc3[N+](=O)[O-])C(=O)O[C@]12C` . 0.25 µg/mL

###

Tested on: Staphylococcus epidermidis
Test: Antibacterial activity against erythromycin-resistant Staphylococcus epidermidis 19-5 assessed as inhibition of visible bacterial growth incubated for 18 hrs by broth microdilution method
Format: functional
Can you tell me MIC for the items I'm about to list?

Staphylococcus epidermidis / MIC / `CC[C@H]1OC(=O)[C@@](C)(F)C(=O)[C@H](C)[C@@H](O[C@@H]2O[C@H](C)C[C@H](N(C)C)[C@H]2O)[C@](C)(OC)C[C@@H](C)C(=O)[C@H](C)[C@H]2N(CCCOC(=O)Nc3ccc(Cl)cc3)C(=O)O[C@]12C` : value? < 0.03 µg/mL

Staphylococcus epidermidis / MIC / `CCOc1ccccc1NC(=O)OCCCN1C(=O)O[C@]2(C)[C@@H](CC)OC(=O)[C@@](C)(F)C(=O)[C@H](C)[C@@H](O[C@@H]3O[C@H](C)C[C@H](N(C)C)[C@H]3O)[C@](C)(OC)C[C@@H](C)C(=O)[C@H](C)[C@@H]12` : value? < 0.03 µg/mL

Staphylococcus epidermidis / MIC / `CC[C@H]1OC(=O)[C@@](C)(F)C(=O)[C@H](C)[C@@H](O[C@@H]2O[C@H](C)C[C@H](N(C)C)[C@H]2O)[C@](C)(OC)C[C@@H](C)C(=O)[C@H](C)[C@H]2N(CCCOC(=O)Nc3ccc(Cl)cc3C)C(=O)O[C@]12C` : value? < 0.03 µg/mL

Staphylococcus epidermidis / MIC / `CC[C@H]1OC(=O)[C@H](C)[C@@H](O[C@H]2C[C@@](C)(OC)[C@@H](O)[C@H](C)O2)[C@H](C)[C@@H](O[C@@H]2O[C@H](C)C[C@H](N(C)C)[C@H]2O)[C@](C)(O)C[C@@H](C)C(=O)[C@H](C)[C@@H](O)[C@]1(C)O` : value? 0.25 µg/mL
